// provenance: patent US8450319B2

outcome_measure: melting point

| compound | melting point |
| --- | --- |
| O=c1[nH]ncc2[nH]c(-c3ccc(OC(F)F)c(OCC4CC4)c3)cc12 | 294 to 295 °C |
| Cc1c(-c2ccc(OC(F)F)c(OC3CC3)c2)[nH]c2cn[nH]c(=O)c12 | 245 to 246 °C |

Here is the next item to consider.
Entry `CC1(C)C=Cc2c(-c3[nH]c4cn[nH]c(=O)c4c3Cl)ccc(OC(F)F)c2O1` has what melting point?
226 to 234 °C

====

outcome_measure: melting point

| molecule | melting point |
| --- | --- |
| CCC(C)OCc1c(-c2ccc(OC(F)F)c(OC3CC3)c2)[nH]c2cn[nH]c(=O)c12 (centres unmarked) | 103 to 106 °C |
| CCOCCc1c(-c2ccc(OC(F)F)c(OC3CC3)c2)[nH]c2cn[nH]c(=O)c12 | 201 to 203 °C |

Quick one: melting point of `O=c1[nH]ncc2[nH]c(-c3ccc(OC(F)F)c4c3CC3(CCCC3)O4)cc12` ?
290 to 295 °C

Quick one: melting point of `CCCCCc1c(-c2ccc(OC(F)F)c(OC3CC3)c2)[nH]c2cn[nH]c(=O)c12` ?
191 to 193 °C

Please look up its melting point: `O=c1[nH]ncc2[nH]c(-c3ccc(OC(F)F)c(OCC4CC4)c3)c(-c3ccccc3)c12`
249 to 251 °C

Entry `N#Cc1cccc(Cc2c(-c3ccc(OC(F)F)c(OC4CC4)c3)[nH]c3cn[nH]c(=O)c23)c1` : reported melting point = ?
130 to 135 °C

Entry under review: `CCOCc1c(-c2ccc(OC(F)F)c(OC3CC3)c2)[nH]c2cn[nH]c(=O)c12` . Reported melting point?
141 to 143 °C

Which measured melting point value corresponds to `O=c1[nH]ncc2[nH]c(-c3ccc(OC(F)F)c(OC4CCC4)c3)c(Br)c12` ?
234 to 238 °C
